system: NCI-H522 lung; test: NCI-60 one-dose screen, 48 h (100 = growth as untreated, 0 = no growth, -100 = all killed); settings: 10 µM unless noted
The panel holds about 83,000 compounds, 20% with a hit somewhere; the sample as a whole holds those more often.
Note to self: class labels come from recorded growth, ranges listed here: group 1: < 30%; group 2: ≥ 30% and < 60%; group 3: ≥ 60%

Place this compound in its band: COC(=O)c1nc(-c2ccccc2)oc1S(=O)(=O)NCC(c1ccc(Cl)cc1)N1CCCCC1 (stereo not given) group 1

Please give the result for `COc1cc2c(cc1OC)CC[N+](CCC[N+](C)(C)C)=C2` too. group 3

What would you report for `COc1cccc2cc(N(C)c3nc(C)nc4c3CCC4)ccc12` ? group 1

Now consider `FC(F)(F)c1cccc(-c2nnn(Cc3cc(-c4cccc(Cl)c4)no3)n2)c1` and answer again. group 3

Note, next up: `CCOC(=O)C#Cc1c(CC(=O)OCC)nnn1[C@H]1O[C@@H](CO)[C@@H]2OC(C)(C)O[C@@H]21` group 1

Follow-up item: O=C(OCC(O)C(=O)NC12CC3CC(CC(C3)C1)C2)c1cccc(Br)c1 (stereo not given) group 3

Similarly, `CC(=O)/C(Br)=C/c1ccc(Br)o1` ? group 2

Now consider `CNC(=O)c1cc(Oc2cccc3nc(NC(=O)Nc4ccc(F)cc4F)ccc23)ccn1` and answer again. group 2

Can you handle `O=c1c(Cc2ccc(F)cc2)cc(-c2ccccc2)nn1C/C(=N/O)c1ccccc1` next? group 2

Also need `COc1ccc2c(O)cc3c(c2c1)[C@H](CCl)CN3C(=O)c1cc2cc(NC(=O)CCN3CCOCC3)ccc2[se]1` , thanks. group 1

* * *

system: BT-549 breast; test: NCI-60 one-dose screen, 48 h; details: 10 µM unless noted
The panel holds about 83,000 compounds, 20% with a hit somewhere; the sample as a whole holds those more often. Active and inactive are the calls of the source. The calls were made as follows: active = growth percent below 10; inactive = the rest.
// one of True = active, False = inactive, no free text

Recorded test call requested for `COc1cc(C)cc(-c2c(-c3cc(N4CC(O)C4)nc(-c4cccnc4)n3)cnn2C)c1` False

Also, Cc1c(C)c2c(c(C)c1OC(=O)CCC(=O)[O-])CCC(C)(CCCCCCCCCCC[P+](c1ccccc1)(c1ccccc1)c1ccccc1)O2 (configuration not stated) please. True

Note, next up: CC1=C(C(=O)OCc2ccccc2)C(c2ccc3c(c2)OCO3)n2c(nc3ccccc32)N1 (configuration not stated) False

Now consider `CCNCCNc1c(C)c(-c2ccc(C(F)(F)F)cc2)c(C#N)c2nc3ccccc3n12` and answer again. False

Try this molecule too: `COc1ccc2c(c1)C(c1c[nH]c3ccccc13)(c1c[nH]c3ccccc13)CCO2` False

Subsequent entry: CCN1C(=O)N(CC)C2C1NN=c1s/c(=C3\C(=O)N(C)c4ccccc43)c(=O)n12 (configuration not stated) False

Similarly, `C#CC#CC#CC#CC#CC#CC#CC#CC[C@@H]1OC[C@H](COC(=O)O[C@@H](C(=O)O[C@H]2C[C@@]3(O)[C@@H](OC(=O)c4ccccc4)[C@@H]4[C@]5(OC(C)=O)CO[C@@H]5C[C@H](O)[C@@]4(C)C(=O)[C@H](OC(C)=O)C(=C2C)C3(C)C)[C@@H](NC(=O)c2ccccc2)c2ccccc2)O1` ? False

Now the same for O=C1C=CC2(O)OC(c3ccccc3)CC(=O)C2=C1O (configuration not stated) False

And what about the molecule `Cc1ccc(-c2nnc(SCc3nc(N)nc(Nc4ccccc4F)n3)n2-c2ccccc2)cc1` ? False

// query: `O=c1ccc2nc(-c3ccccc3)nn(-c3ccccn3)c-2c1` False

And for O=C(CN1C(=O)NC2NC(=O)NC21)N/N=C/c1cccc([N+](=O)[O-])c1 (configuration not stated) ? False

Param item: `COc1ccccc1-c1nc2ccc3[nH]ncc3c2c2c1CCCC2` False

Another molecule to check: `COc1cc(/C=N/NC(=O)c2ccc3nc(-c4ccc(Cl)cc4)[nH]c3c2)cc(OC)c1OC` False

// repeat for `COc1ccc(CNc2c3ccccc3nc3ccccc23)cc1OC` and report False

Same lookup for `CSc1nc(CC(C)C)c(C#N)c(=O)n1C` , please. False

Could you do the same for `CNc1nc2ncc(-c3c(C)noc3C)cc2n1Cc1ccccc1` , please? False

Entry to check: `O=C(/C=C/c1ccc([N+](=O)[O-])cc1)c1cccc(Nc2nc(Nc3ccccc3)nc(Nc3ccccc3)n2)c1` False

Similarly, CCOC(=O)C1=C(c2ccccc2)N=C2SC=C(c3cccc([N+](=O)[O-])c3)N2C1c1ccc(O)cc1 (configuration not stated) ? False

Quick one: `CC(C)(C)n1cc(-c2ccnc(NCCNS(=O)(=O)c3ccc(C(F)(F)F)cc3)c2)c(-c2ccccc2)n1` False

And for `O=C(Nc1ccccc1C(F)(F)F)C1=NCCCCN1` ? False

Moving on to the next molecule: `O=C(/C=C/c1ccc(Cl)cc1)c1ccc(-n2cc(CN3CCN(c4cc5c(cc4F)c(=O)c(C(=O)O)cn5C4CC4)CC3)nn2)cc1` False

Do the same for `COc1ccc(-c2ccc(-c3ccc(C(=N)N)o3)o2)cc1` please False

Request: `COc1cc2c(cc1OC)CC[N+](CCC[N+](C)(C)C)=C2` False

Please give the result for `COc1ccc(NC(=O)c2sc3nc(C)c(C(=O)c4ccccc4)cc3c2N)cc1` too. False

Also check `O=C(O)CCCN1C(=O)CSC1=S` False

Here is the next molecule: `COc1cc(OC)cc(C(=O)Nc2cnc(Nc3ccc(N4CCOCC4)nc3)nc2Oc2ccc(C(F)(F)F)cc2)c1` False

What about `Cc1ccccc1NC(=O)Cn1cc(CN2CCN(c3ccnc4cc(Cl)ccc34)CC2)nn1` ? False

Now consider `O=C1/C(=C/c2ccc(Br)cc2)COc2ccc(O)cc21` . False

Also check `CCCNNC(=O)c1ccc(CNC(=O)/C=C/c2ccccc2)cc1` False

Field entry: O=c1n(C2OC(CO)C(O)C2O)ccc2nccn12 (configuration not stated) False

Try the molecule `O=C(O)c1cc2ccccc2s1` False

Likewise for `COc1cc(OCc2cccc(-c3ccc4c(c3)OCCO4)c2C)cc(OC)c1C=O` ? False

Next record, please: `CC1(C)CCC[C@]23C(=O)O[C@](O)(C(=O)C4=C[C@@](C)(/C=C/CCCc5ccc6ccc7cccc8ccc5c6c78)CC[C@@]42O)[C@@H]13` True

// query: `Cc1ccc(Nc2nc(N)nc(N)c2N=O)cc1Cl` False

Please give the result for `O=C(Nc1cccc(Cl)c1)Oc1c(Cl)c(Cl)c(Cl)c(Cl)c1Cl` too. False

// same read-out, input: `CC(C)(C)[C@H](OCc1cn([C@H]2C[C@@H](O)[C@@H](CO)O2)c(=O)[nH]c1=O)c1ccc(C#Cc2ccccc2)cc1[N+](=O)[O-]` False

Try `COC(=O)c1c(C(=O)OC)c2ccc3c4ncccc4ccc3n2c1C(=O)c1ccc(C)cc1` next. False

* * *

test system: CCRF-CEM leukemia; assay: NCI-60 one-dose screen, 48 h; conditions: 10 µM unless noted
This is part of a sample that, as a whole, favours compounds with a hit. Of some 83,000 tested, about 20% had one in any assay. Active and inactive are the calls of the source. Rule for the calls: active = growth percent below 10; inactive = the rest.
The categories you may choose from are label 1 = active, label 0 = inactive

Outcome? `Cc1cc(C)n(C(=O)CSc2nc3sc4c(c3c(=O)n2-c2ccccc2)CCCCC4)n1` label 0

Do the same for COc1ccccc1/C=C/C1=C(C)CCC(c2ccccc2OC)C1C (stereo not given) please label 1

Item: `COc1ccc(Nc2nccc(Nc3ccc4[nH]ncc4c3)n2)cc1` label 1

Next: `CN1CCN(Cc2ccc(NC(=O)c3cncc(C#Cc4cnc(N)c5ccc(C#N)cc45)c3)cc2C(F)(F)F)CC1` label 1

Input `COc1ccc(-c2cn(Cc3ccc4c(Br)cc(Br)c(O)c4n3)nn2)cc1` label 0

* * *

test system: MOLT-4 leukemia; assay: NCI-60 one-dose screen, 48 h (100 = growth as untreated, 0 = no growth, -100 = all killed); conditions: 10 µM unless noted
About 83,000 compounds went through this panel and 20% of them were active in at least one assay; those are over-represented in the sample as a whole. Activity calls are given as the source filed them. The calls were made as follows: active = growth percent below 10; inactive = the rest.
measure: growth

Observed growth on MOLT-4 leukemia for Nc1nc(N)c2c(n1)NC(c1ccc3c(c1)OCO3)CC(c1cccc(Nc3ccncc3)c1)=N2 (centres undefined) , please. 71.2% (inactive)

Also need O=C1CCC(C(=O)N/N=C/c2ccc([N+](=O)[O-])cc2)N1 (centres undefined) , thanks. 102% (inactive)

Item: `C(CCCSC1=NCCN1)CCSC1=NCCN1` 102% (inactive)

Next: `COc1ccccc1-c1nc2ccc3[nH]ncc3c2c2c1CCCC2` 42.6% (inactive)

Now try C#CCOc1ccc(C2=NN(C)C3N=C(Cl)c4ncn(C)c4N23)cc1OCC#C (centres undefined) . 82.9% (inactive)

Try this compound too: CO[C@H]1/C=C/O[C@@]2(C)Oc3c(C)c(O)c4c(O)c(c5c(nc6cc(C)ccn65)c4c3C2=O)NC(=O)/C(C)=C\C=C\[C@H](C)[C@H](O)[C@@H](C)C(O)[C@@H](C)[C@H](OC(C)=O)[C@@H]1C (some centres undefined) 89.8% (inactive)

Next compound: `Cc1cc(C(=O)Nc2cc(Nc3ncccc3-c3ncnc4nc[nH]c34)ccc2F)cc(C(C)(C)C#N)c1` 53.2% (inactive)

Consider next the compound `COc1ccc(/C=C2/CCc3cc4ccc(OC)cc4[o+]c32)c(O)c1` in the same way. 0.523% (active)

And then `CNC(=O)c1cc(Oc2ccc3nc(NC(=O)Nc4ccc(F)cc4F)sc3c2)ccn1` , what is it? 82.4% (inactive)

Queued: `CCOC(=O)c1c(NC(=S)Nc2ccc([N+](=O)[O-])cc2)sc2c1CCCCC2` 72.9% (inactive)

Could you do the same for Cc1[nH]c(C(=O)Nc2ccccc2OC2CCNC2)c(Cl)c1Cl (centres undefined) , please? 87.8% (inactive)

Further, for `CCOC(=O)/C(=C/c1ccc([N+](=O)[O-])cc1)C(=O)c1ccccc1` ? 4.35% (active)

Ok, now O=C(OCC(O)C(=O)NC12CC3CC(CC(C3)C1)C2)c1cccc(Br)c1 (centres undefined) 87% (inactive)

Repeat for the following compound: `Nc1nc(=O)n([C@H]2CC=C(CO)O2)cc1F` 90.5% (inactive)

// query: COC(CCP(=O)(c1ccccc1)c1ccccc1)(C(=O)c1ccccc1)c1ccccc1 (centres undefined) 18.3% (inactive)

Can you handle `CN1CCN(Cc2ccc(NC(=O)c3cncc(C#Cc4c(N)ncc5ccccc45)c3)cc2C(F)(F)F)CC1` next? -41.3% (active)

Ok, now `COC(=O)[C@@H](Cc1c[nH]c2ccccc12)NC(=O)[C@H](Cc1ccccc1)NCc1ccncc1` 92.5% (inactive)

Can you check CC(C)=CCC[C@](C)(O)C1CC[C@]2(C)[C@@H]1CC[C@@H]1[C@@]3(C)CC/C(=N\OCCC#N)C(C)(C)[C@@H]3CC[C@]12C (some centres undefined) next? 77.5% (inactive)

Now the compound `O=C(O)/C=C\C(=O)Nc1ccc2c(c1)Cc1cc(F)ccc1-2` 109% (inactive)
